Each item that follows carries a reported PK Improvement.
experiment: Clearance (CL) / pharmacokinetics; format: in vivo, mice; conditions: Table 4
MEASURED_ENDPOINT: PK Improvement

CO[C@H](C(=NOCCNC(=O)c1[nH]c2ccc(Cl)cc2c1-c1ccc(Cl)cc1)[C@@H](O)[C@@H](C)O)[C@@H]1Cc2cc3cc(O[C@H]4C[C@@H](O[C@H]5C[C@@H](O)[C@H](O)[C@@H](C)O5)[C@H](O)[C@@H](C)O4)c(C)c(O)c3c(O)c2C(=O)[C@H]1O[C@H]1C[C@@H](O[C@H]2C[C@@H](O[C@H]3C[C@](C)(O)[C@H](O)[C@@H](C)O3)[C@@H](O)[C@@H](C)O2)[C@H](O)[C@@H](C)O1 :: 68.6
COC(C(=NOCCNC(=O)c1[nH]c2ccc(Cl)cc2c1-c1cccs1)C(O)C(C)O)C1Cc2cc3cc(OC4CC(OC5CC(O)C(O)C(C)O5)C(O)C(C)O4)c(C)c(O)c3c(O)c2C(=O)C1OC1CC(OC2CC(OC3CC(C)(O)C(O)C(C)O3)C(O)C(C)O2)C(O)C(C)O1 (stereo not drawn) :: 83.1
COC(C(=NOCCNC(=O)c1[nH]c2ccc(Cl)cc2c1-c1ccccc1)C(O)C(C)O)C1Cc2cc3cc(OC4CC(OC5CC(O)C(O)C(C)O5)C(O)C(C)O4)c(C)c(O)c3c(O)c2C(=O)C1OC1CC(OC2CC(OC3CC(C)(O)C(O)C(C)O3)C(O)C(C)O2)C(O)C(C)O1 (stereo not drawn) :: 75.1
